# Tested on: ATP;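 also: ATP exposure 15 min at 22 °C before imaging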
# protocol_details: switch fluorescence ratio, 500 uM ATP over buffer (Cy3 cluster intensity, sum of 5 cycles each) (fold (ratio)); higher = stronger signal-on switching upon ATP binding; sequences stand for … in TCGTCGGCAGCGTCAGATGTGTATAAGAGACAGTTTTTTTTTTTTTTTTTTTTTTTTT…TC
# condition_context: aptamer strand: ATP DNA aptamer (quencher-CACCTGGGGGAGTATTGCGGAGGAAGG + anchor), 100 nM annealed; ATP concentration: 500 uM
measurement_type: switch fluorescence ratio

1. TAGGGTCTCA ... 1
2. AAAAGGAGGA ... 1.02
3. ATGGGAGGGG ... 1.01
4. ATTTTCACAG ... 1.03
5. CTGTATGATC ... 1
6. AACGGGCTGG ... 0.996
7. TTCTGTTAGA ... 1
8. TTCTGGTAGG ... 1
9. AGAGTCGATT ... 1.01
10. ATCGTCGTGC ... 0.975
11. TTTTTGGCTA ... 1
12. TTTGGCGAAA ... 1.01
13. GGATCGTTGA ... 0.977
14. TAATCTTAGG ... 0.984
15. ATTGTAGGAG ... 0.997
16. GGGGCAAAGG ... 1.03
17. AATACCTTTC ... 2.3
18. GCAATTGCTG ... 0.98
19. TTTCGATGGG ... 0.978
20. GTCAGGGGGG ... 1.02
21. ATGATTGTGG ... 0.997
22. GAACGGGTAC ... 1.42
23. GGGTTTCAGC ... 1
24. GATTTAAAAT ... 1.01
25. TATGGATAGG ... 0.996
26. TTCGAAGGTT ... 0.979
27. GCGATCAAGG ... 1.02
